# measured target: CmglBY-SS glucose FRET biosensor: fusion protein ECFP-GGBP-EYFP of E. coli MG1655 GGBP (galactose/glucose-binding protein) (Escherichia coli)
# Sequence (P0AEE5 24-332 with tags or gaps limits assumed): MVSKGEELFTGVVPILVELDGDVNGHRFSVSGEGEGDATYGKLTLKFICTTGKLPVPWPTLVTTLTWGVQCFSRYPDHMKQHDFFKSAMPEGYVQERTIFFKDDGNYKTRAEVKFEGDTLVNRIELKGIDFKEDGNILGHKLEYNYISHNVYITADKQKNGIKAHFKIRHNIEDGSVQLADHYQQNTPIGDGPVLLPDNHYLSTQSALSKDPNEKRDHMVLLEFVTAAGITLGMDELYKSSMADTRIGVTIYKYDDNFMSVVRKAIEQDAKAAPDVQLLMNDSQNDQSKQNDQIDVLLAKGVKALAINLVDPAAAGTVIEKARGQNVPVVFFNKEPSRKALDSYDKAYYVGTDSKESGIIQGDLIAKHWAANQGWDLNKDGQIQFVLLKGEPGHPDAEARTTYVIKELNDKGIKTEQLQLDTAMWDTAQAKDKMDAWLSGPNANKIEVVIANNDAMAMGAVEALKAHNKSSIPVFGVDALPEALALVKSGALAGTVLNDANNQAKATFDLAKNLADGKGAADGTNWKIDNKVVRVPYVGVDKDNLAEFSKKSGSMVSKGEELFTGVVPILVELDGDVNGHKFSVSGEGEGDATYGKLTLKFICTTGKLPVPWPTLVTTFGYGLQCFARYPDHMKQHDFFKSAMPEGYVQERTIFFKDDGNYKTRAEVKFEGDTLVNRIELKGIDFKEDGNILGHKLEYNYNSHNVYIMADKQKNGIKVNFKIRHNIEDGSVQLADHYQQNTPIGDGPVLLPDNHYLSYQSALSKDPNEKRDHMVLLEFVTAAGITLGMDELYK
# procedure text: Ligand titration of FRET biosensor CmglBY-SS (glucose sensor) at its critical temperature

molecule: OC[C@H]1OC(O)[C@H](O)[C@@H](O)[C@@H]1O (stereo partly shown) [glucose]
Kd: 9.2 µM
